As shown below, each of these compounds has a reported biofilm growth: OD 630 nm at 24 hrs divided by OD of control (control = 1) value.
system: C. sputigena; assay: Twenty-four hour biofilm growth (crystal violet); assay type: cell-based; settings: 10 μmol/ml
METRIC_NAME: biofilm growth: OD 630 nm at 24 hrs divided by OD of control (control = 1)

INSERT INTO results (structure_smiles_string, assay_target, reading) VALUES
  ('OC[C@@H](O)[C@@H](O[C@H]1O[C@H](CO)[C@H](O)[C@H](O)[C@H]1O)[C@H](O)[C@@H](O)CO', 'C. sputigena', 0.5658),
  ('O[C@H]1[C@H](O)[C@@H](O)[C@H](O)[C@@H](O)[C@H]1O', 'C. sputigena', 0.9522),
  ('OC[C@H]1O[C@@](O)(CO)[C@@H](O[C@H]2O[C@H](CO)[C@@H](O)[C@H](O)[C@H]2O)[C@@H]1O', 'C. sputigena', 0.9387),
  ('CC(=O)N[C@H](C=O)[C@@H](O)[C@H](O)[C@H](O)CO', 'C. sputigena', 0.9323);
